- System: NCI-H226 lung
- Assay procedure: NCI-60 one-dose screen, 48 h
- Measurement setup: 10 µM unless noted
This is part of a sample that, as a whole, favours compounds with a hit. Of some 83,000 tested, about 20% had one in any assay. The source made the active and inactive calls. The calls were made as follows: active = growth percent below 10; inactive = the rest.
Log the outcome using a class from t (active), f (inactive)

// known answers, use as guide
Cn1cc(NC(=O)c2cc(NC(=O)c3ccc(/C=C/c4ccccc4)cc3)cn2C)cc1C(=O)NCCCN1CCOCC1 :: f
CCC(C)(C)c1ccc(OCCCCCCN2CCN(c3ccncc3)CC2)cc1 :: f
COc1ccc(-c2ccnc(SCc3cc4cc(Cl)ccc4[nH]c3=O)n2)cc1 :: t
CC1CCCCN1CCCNC(=O)N/C(N)=N/c1nc2ccccc2s1 (stereo not given) :: f
CCCCn1c(O)c(N=Nc2nc(-c3cc4ccccc4oc3=O)cs2)c2cc(Br)ccc21 :: f

Here's the next entry for you.
Hi team, can someone confirm the assay call for Cc1ccc(/C=C/c2n(Cc3ccc4ccccc4c3)c3ccccc3[n+]2Cc2ccc3ccccc3c2)cc1 ?
t

====

- Test system: SNB-75 CNS
- Assay procedure: NCI-60 one-dose screen, 48 h (100 = growth as untreated, 0 = no growth, -100 = all killed)
- Measurement setup: 10 µM unless noted
Compounds without any hit were thinned out: in the full panel of roughly 83,000, 20% have a hit.
Threshold 60%: growth strictly smaller gives satisfied, otherwise not satisfied.

Cc1ccc(-n2c(-c3cc4ccccc4nc3Cl)noc2=O)cc1 :: satisfied

I'd appreciate it if you could check whether COc1ccc(NC(=O)Nc2ccc(OCc3ccc(F)cc3)cc2)cc1 has growth smaller than 60%.
not satisfied

I'd appreciate it if you could check whether Brc1ccc(-c2n(Cc3ccc4ccccc4c3)c(-c3ccccc3)c(-c3ccccc3)[n+]2Cc2ccc3ccccc3c2)cc1 has growth smaller than 60%.
satisfied

I'd appreciate it if you could check whether O=C(c1ccccc1)c1ccc2nc(-c3ccc(F)cc3)[nH]c2c1 has growth smaller than 60%.
not satisfied

I'd appreciate it if you could check whether COc1ccc(C2=NN(c3ccccc3)C(c3ccc(OC)c(OCc4ccccc4)c3)C2)cc1OC (configuration not stated) has growth smaller than 60%.
not satisfied

I'd appreciate it if you could check whether Cc1ccc(C(=O)CSc2nc3ccc(C)cc3c(=O)n2-c2ccc(F)cc2)cc1 has growth smaller than 60%.
satisfied

I'd appreciate it if you could check whether CC1=C(C(=O)c2ccccc2)C(c2ccc(-n3cncn3)cc2)n2c(nc3ccccc32)N1 (configuration not stated) has growth smaller than 60%.
not satisfied

I'd appreciate it if you could check whether CNC(=O)c1cccc(NC(=O)c2ccc3c(c2)nnn3/C(C#N)=C/c2ccccn2)c1 has growth smaller than 60%.
not satisfied

I'd appreciate it if you could check whether CC(=O)Nc1ccc(-c2nc3cc(-c4ccc(O)cc4)ccc3n2C)cc1 has growth smaller than 60%.
satisfied

I'd appreciate it if you could check whether CN(C)c1nc(NCCNS(=O)(=O)c2ccc(C(=O)/C=C/c3ccc(Cl)cc3)cc2)nc(Nc2ccc(F)cc2)n1 has growth smaller than 60%.
satisfied

I'd appreciate it if you could check whether O=C(Nc1ccc(C(F)(F)F)cc1)Nc1ccc2oc(=O)ccc2c1 has growth smaller than 60%.
satisfied

I'd appreciate it if you could check whether CN(C)c1nc(NCCNS(=O)(=O)c2ccc(C3=Nc4c(N)nc(N)nc4NC(c4ccccc4)C3)cc2)nc(Nc2ccc(F)cc2)n1 (configuration not stated) has growth smaller than 60%.
not satisfied
